- Test system: UACC-62 melanoma
- Method description: NCI tumour cell line growth inhibition, 48 h
Consider the following molecules; for each one, report its TGI.

## Task Input CC(C)=CCC/C(C)=C/[C@H]1OC(=O)CC12C[C@H](O)C=CC2=O (stereo partly specified) , output reported TGI.
## Result 2.68 µM

## Task Input COc1cc2c3c(c1OC)Oc1ccc(cc1)CC1c4c(cc(OC)c(OC)c4Oc4ccc(cc4)CC3N(C)CC2)CCN1C (stereo unspecified) , output reported TGI.
## Result 34.9 µM

## Task Input `Nc1ccc(-c2nc3ccccc3s2)cc1` , output reported TGI.
## Result 38.6 µM

## Task Input `C=C(C(=O)OC)[C@H]1CC/C(C)=C/CC/C(C)=C/CC[C@@]2(C)O[C@@H]2C1` , output reported TGI.
## Result 26 µM

## Task Input `CC(C)c1nccn1Cc1ccc(Cl)cc1Cl` , output reported TGI.
## Result > 100 µM

## Task Input CC1=NN(C(=O)c2cc(Cl)cc([N+](=O)[O-])c2)C(=O)C1N=Nc1ccccc1C(=O)O (stereo unspecified) , output reported TGI.
## Result > 100 µM

## Task Input C[C@H]1CCC/C=C/[C@@H]2C[C@H](O)C[C@H]2[C@H](O)[C@@H](SC2OC(CO)C(O)C(O)C2O)CC(=O)O1 (stereo partly specified) , output reported TGI.
## Result > 100 µM

## Task Input O=C1C2=C(c3ccccc31)C(c1ccc(Cl)cc1)NC(=S)N2 (stereo unspecified) , output reported TGI.
## Result 70.9 µM

## Task Input C#CCOc1cccc(Nc2ncc3ncn(C4CCN(C(=O)CCl)C4)c3n2)c1 (stereo unspecified) , output reported TGI.
## Result > 62.5 µM

## Task Input CC1OC=CC(=O)C1O (stereo unspecified) , output reported TGI.
## Result > 100 µM

## Task Input `COc1ccc(C2=NNC(=O)c3ccccc3N2c2nc(-c3cccs3)nc3ccc(Br)cc23)cc1` , output reported TGI.
## Result > 100 µM

## Task Input `O=c1c(-c2ccc(O)cc2)coc2cc(O)cc(O)c12` , output reported TGI.
## Result > 100 µM

## Task Input COc1cccc2ccc3c(c12)C(=O)OC31CCc2c(C)cccc21 (stereo unspecified) , output reported TGI.
## Result > 46.4 µM

## Task Input `CN(CCN(C)C(=O)CCn1ccc(=O)[nH]c1=O)C(=O)CCn1ccc(=O)[nH]c1=O` , output reported TGI.
## Result > 100 µM

## Task Input COc1ccc(C2NC(=O)Nc3c2c(=O)oc2c3ccc3ccccc32)cc1 (stereo unspecified) , output reported TGI.
## Result > 100 µM

## Task Input `C/C(=C\c1ccccc1)C(=O)NCc1ccc(C(=O)NCCc2c[nH]c3ccccc23)cc1` , output reported TGI.
## Result 53.7 µM

## Task Input O=S1(=O)CC(Br)C(Br)C1 (stereo unspecified) , output reported TGI.
## Result 18.7 µM

## Task Input `N#Cc1ccc2c(c1)C(=O)c1c-2n(CCCN=[N+]=[N-])c(=O)c2cc([N+](=O)[O-])ccc12` , output reported TGI.
## Result > 50 µM

## Task Input COc1cccc2c1[C@]1(O)C(O)CCCC21 (stereo partly specified) , output reported TGI.
## Result > 100 µM

## Task Input C=C1C(=O)O[C@H]2C/C(C=O)=C\[C@H]3O[C@H]3/C(COC(=O)C(C)C)=C/CC12 (stereo partly specified) , output reported TGI.
## Result 5.42 µM

## Task Input Cc1ccc([N+](=O)[O-])cc1NC(=O)C(=O)C1CCC2=C(Sc3ccccc3N2)C1=O (stereo unspecified) , output reported TGI.
## Result > 100 µM
